Hey, just so you know, these numbers are from paper PMC11929097.

# Test System: T1, parental PvRBP2b_(169-470) (Plasmodium vivax reticulocyte-binding protein 2b, N-terminal domain) (Plasmodium vivax strain Salvador I, UniProt A5K736)
# T1 construct: TEV cleavage site between the His tag and the protein; pPROEX HTb vector; also called parental construct; parental protein
# Assay Remarks: BLI; Octet RED96; human mAb loaded on anti-human IgG Fc capture sensor tips; parental PvRBP2b169-470 or design in solution, 2-fold series 0.63 to 10 nM; 25 °C; PBS, 0.1% bovine serum albumin, 0.05% Tween-20; global fit 1:1 model; two independent experiments
# Test Parameters: both partners purified
Exercise: state measured koff for each of the binders provided.

Form field: reported koff of human mAb 241242 (antibody, V domains shown, naturally acquired human mAb, recombinant IgG captured by its Fc; source: Expi293 HEK cells, transfected, purified (protein A, SEC)) VH: EVQLLESGGGLVQPGGSLRLSCAVSGFTFRNYALSWVRQAPGKGLDWVSTISASGGATYYADSVKGHFTISRDNSKNILYLDMKSLRAEDTAIYYCARDGGSYTPYFFLDSWGQGALVTVSS VL: SYELTQPASVSVAPGQTAQITCGGNSIGRKSIHWYQHKPGQAPVLVISYDSDRPSGIPERFSGSNSGNTATLTISKVEAGDEADFYCQVRDSDNDHVVFGGGTKLTVL
< 1e-07 s⁻¹

Try human mAb 237235 (antibody, V domains shown, naturally acquired human mAb, recombinant IgG captured by its Fc; source: Expi293 HEK cells, transfected, purified (protein A, SEC)) VH: QVQLVESGGGVVQPGRSLRLSCAASGFMFNSYGMHWVRQAPGKGLEWMAFISYDGSDDYYGDSVKGRITISRDNSKNTLFLHINSLRTEDTAVYYCAKESNYGENAFDVWGHGTMVTVSS VL: QSALTQPRSVSGSPGQSVTISCTGTSNDVGFYNFVSWYQHHPGKAPKLMIYDVTERPSGVPDRFSGSKSGNTASLTISGLQAEDEAEYYCCSYAGTYTFVFGHGTKVTVL next.
< 1e-07 s⁻¹

Proceed to human mAb 283284 (antibody, V domains shown, naturally acquired human mAb, recombinant IgG captured by its Fc; source: Expi293 HEK cells, transfected, purified (protein A, SEC)) VH: QVQLQQWGAGLLKPSETLALTCTVYGGSSSGYYWNWIRQSPGKGLEWIGEISDSGSTIYNPSLESRVTMSVDTSKNQFSLKLTSVTAADTAVYYCAKAILTRYNWLDPWSQGTLVTVSS VL: DIVMTQSPSSLSASVGDRISISCRASQGVNSALAWYQQKPGKAPKLLIYDASTLESGVPSRFSGSGSGTDFALTINSLQPEDFATYYCQQFNSYPLTFGGGTKVEIK
< 1e-07 s⁻¹
